biological target: MAO; assay: MAO inhibitory activity (Holts method, rat liver mitochondrial enzyme)
propertyLabel: pIC50
Hey, just a heads up that pIC50 is the negative log base 10 of the concentration in molar.

I would be grateful if you could share the reported pIC50 for Cc1ccc2sc(NC(=O)CN3CCc4ccccc4[C@H]3c3ccccc3)nc2c1 [Compound 4h] .
4.12

I would be grateful if you could share the reported pIC50 for O=C(CN1CCc2ccccc2[C@H]1c1ccccc1)Nc1nc2cc(Br)ccc2s1 [Compound 4e] .
3.89

I would be grateful if you could share the reported pIC50 for O=C(CN1CCc2ccccc2[C@H]1c1ccccc1)Nc1nc2c(Cl)cc(Cl)cc2s1 [Compound 4o] .
4.17

I would be grateful if you could share the reported pIC50 for COc1ccc2sc(NC(=O)CN3CCc4ccccc4[C@H]3c3ccccc3)nc2c1 [Compound 4k] .
4.18
